Molecular target: native mouse MET on living cells (mouse, UniProt P16056 25-1379)
Assay: cell-based or functional assay
PROPERTY NAME: scatter score 0-4, MLP29, 0.333 nM (score)
Report as a plain number; the unit score is understood.

Example entries begin here.
| BINDER | READING UNIT | scatter score 0-4, MLP29, 0.333 nM |
| --- | --- | --- |
| 71C3 chimeric llama-human IgG1 mAb (antibody, V domains shown, llama VH on human IgG1 CH1-CH2-CH3, llama VL on human lambda CL) VH: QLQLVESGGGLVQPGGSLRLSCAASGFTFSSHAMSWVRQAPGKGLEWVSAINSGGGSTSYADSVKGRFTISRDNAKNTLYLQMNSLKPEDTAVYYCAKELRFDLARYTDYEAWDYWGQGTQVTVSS VL: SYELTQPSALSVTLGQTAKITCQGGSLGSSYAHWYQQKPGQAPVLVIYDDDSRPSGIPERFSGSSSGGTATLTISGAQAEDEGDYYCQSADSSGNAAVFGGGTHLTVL | score | 2 |
| 71G2 chimeric llama-human IgG1 mAb (antibody, V domains shown, llama VH on human IgG1 CH1-CH2-CH3, llama VL on human lambda CL) VH: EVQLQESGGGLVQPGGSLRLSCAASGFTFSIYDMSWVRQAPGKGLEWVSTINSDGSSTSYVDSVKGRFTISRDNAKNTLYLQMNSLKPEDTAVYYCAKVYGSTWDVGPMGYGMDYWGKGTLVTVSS VL: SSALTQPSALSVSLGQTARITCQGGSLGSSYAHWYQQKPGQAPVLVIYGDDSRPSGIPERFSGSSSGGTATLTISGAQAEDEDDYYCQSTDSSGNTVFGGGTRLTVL | score | 4 |
| 71D6 chimeric llama-human IgG1 mAb (antibody, V domains shown, llama VH on human IgG1 CH1-CH2-CH3, llama VL on human lambda CL) VH: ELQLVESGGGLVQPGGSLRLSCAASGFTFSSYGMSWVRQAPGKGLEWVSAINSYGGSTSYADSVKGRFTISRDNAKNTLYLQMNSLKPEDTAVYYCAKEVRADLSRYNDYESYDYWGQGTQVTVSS VL: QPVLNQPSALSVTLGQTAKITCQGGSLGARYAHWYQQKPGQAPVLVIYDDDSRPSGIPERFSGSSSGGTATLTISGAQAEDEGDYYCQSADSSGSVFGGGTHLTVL | score | 4 |
| 71G3 chimeric llama-human IgG1 mAb (antibody, V domains shown, llama VH on human IgG1 CH1-CH2-CH3, llama VL on human lambda CL) VH: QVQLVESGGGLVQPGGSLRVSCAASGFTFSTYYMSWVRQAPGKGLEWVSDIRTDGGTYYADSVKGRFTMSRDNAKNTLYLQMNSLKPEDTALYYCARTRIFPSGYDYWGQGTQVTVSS VL: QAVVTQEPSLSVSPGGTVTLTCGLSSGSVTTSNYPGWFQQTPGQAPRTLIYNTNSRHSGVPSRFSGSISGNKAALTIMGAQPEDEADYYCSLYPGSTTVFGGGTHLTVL | score | 4 |
| 71D4 chimeric llama-human IgG1 mAb (antibody, V domains shown, llama VH on human IgG1 CH1-CH2-CH3, llama VL on human lambda CL) VH: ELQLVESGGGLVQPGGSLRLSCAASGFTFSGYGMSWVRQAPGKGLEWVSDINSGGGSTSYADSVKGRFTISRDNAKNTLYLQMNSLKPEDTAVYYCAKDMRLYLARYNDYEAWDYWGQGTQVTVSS VL: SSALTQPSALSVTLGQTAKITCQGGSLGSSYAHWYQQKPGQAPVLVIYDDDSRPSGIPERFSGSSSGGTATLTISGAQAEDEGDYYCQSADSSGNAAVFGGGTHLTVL | score | 0 |
| 74C8 chimeric llama-human IgG1 mAb (antibody, V domains shown, llama VH on human IgG1 CH1-CH2-CH3, llama VL on human lambda CL) VH: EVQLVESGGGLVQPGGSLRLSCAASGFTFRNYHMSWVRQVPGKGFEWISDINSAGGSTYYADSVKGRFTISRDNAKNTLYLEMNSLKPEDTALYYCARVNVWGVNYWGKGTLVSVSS VL: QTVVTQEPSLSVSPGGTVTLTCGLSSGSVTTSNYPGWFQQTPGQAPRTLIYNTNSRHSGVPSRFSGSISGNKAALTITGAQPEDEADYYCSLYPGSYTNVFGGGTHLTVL | score | 3 |
| 76G7 chimeric llama-human IgG1 mAb (antibody, V domains shown, llama VH on human IgG1 CH1-CH2-CH3, llama VL on human lambda CL) VH: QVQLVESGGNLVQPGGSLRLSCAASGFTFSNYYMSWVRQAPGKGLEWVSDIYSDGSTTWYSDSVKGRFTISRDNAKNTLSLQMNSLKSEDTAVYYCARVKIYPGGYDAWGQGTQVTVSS VL: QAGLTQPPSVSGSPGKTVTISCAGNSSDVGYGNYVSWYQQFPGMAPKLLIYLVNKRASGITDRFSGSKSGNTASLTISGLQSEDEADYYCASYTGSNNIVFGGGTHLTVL | score | 0 |
| 76H10 chimeric llama-human IgG1 mAb (antibody, V domains shown, llama VH on human IgG1 CH1-CH2-CH3, llama VL on human lambda CL) VH: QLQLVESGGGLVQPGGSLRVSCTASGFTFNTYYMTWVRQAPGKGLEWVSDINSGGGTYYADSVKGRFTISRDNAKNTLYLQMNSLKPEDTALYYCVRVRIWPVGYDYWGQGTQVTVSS VL: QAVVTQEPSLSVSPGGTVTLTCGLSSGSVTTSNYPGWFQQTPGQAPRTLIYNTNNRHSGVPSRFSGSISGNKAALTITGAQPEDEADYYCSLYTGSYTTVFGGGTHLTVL | score | 0 |
| 71G12 chimeric llama-human IgG1 mAb (antibody, V domains shown, llama VH on human IgG1 CH1-CH2-CH3, llama VL on human kappa CL) VH: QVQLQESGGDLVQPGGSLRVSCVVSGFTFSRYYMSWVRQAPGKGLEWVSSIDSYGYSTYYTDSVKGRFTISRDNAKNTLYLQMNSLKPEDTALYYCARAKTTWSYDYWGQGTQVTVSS VL: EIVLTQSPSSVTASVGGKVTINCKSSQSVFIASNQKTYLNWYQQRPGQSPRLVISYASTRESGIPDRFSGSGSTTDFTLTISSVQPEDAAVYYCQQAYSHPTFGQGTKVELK | score | 1 |
| 72F8 chimeric llama-human IgG1 mAb (antibody, V domains shown, llama VH on human IgG1 CH1-CH2-CH3, llama VL on human lambda CL) VH: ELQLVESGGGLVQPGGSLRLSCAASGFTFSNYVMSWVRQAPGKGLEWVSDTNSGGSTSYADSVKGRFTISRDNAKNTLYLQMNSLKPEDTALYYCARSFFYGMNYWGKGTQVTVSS VL: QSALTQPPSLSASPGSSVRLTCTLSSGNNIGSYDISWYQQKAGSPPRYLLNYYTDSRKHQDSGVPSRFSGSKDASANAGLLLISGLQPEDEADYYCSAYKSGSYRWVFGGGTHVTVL | score | 0 |

Shifting focus to the binder that follows.
Please give the measured scatter score 0-4, MLP29, 0.333 nM for this binder: 71A3 chimeric llama-human IgG1 mAb (antibody, V domains shown, llama VH on human IgG1 CH1-CH2-CH3, llama VL on human lambda CL) VH: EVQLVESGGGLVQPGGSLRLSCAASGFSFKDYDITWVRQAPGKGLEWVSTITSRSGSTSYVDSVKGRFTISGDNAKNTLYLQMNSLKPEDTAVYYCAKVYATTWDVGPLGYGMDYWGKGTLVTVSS VL: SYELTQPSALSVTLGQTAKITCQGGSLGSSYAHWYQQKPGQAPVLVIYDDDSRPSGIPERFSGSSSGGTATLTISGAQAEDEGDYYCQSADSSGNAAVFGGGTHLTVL
4
